tested on: SR; assay: NCI tumour cell line growth inhibition, 48 h
Active and inactive are the calls of the source. Cut-off read from the data, not from the text of the source: active = GI50 up to about 1.1 µM and inactive = higher.
In this exercise, the only acceptable responses are active, inactive

Query block: Kindly provide the recorded test outcome for the following compound: Cc1nnc(N)nc1/C=C/c1c(O)ccc2ccccc12
Result block: inactive

Query block: Try the compound Nc1ncnc2c1nc(Cl)n2C1OC(CO)C(O)C1O (stereo unspecified)
Result block: inactive

Query block: Try the compound O=C(O)c1cccc(S(=O)(=O)NN2C(=O)CSC2c2ccccc2)c1 (stereo unspecified)
Result block: inactive

Query block: Try the compound COc1ccc(C(c2ccc3c(c2)OCO3)N2C(=O)CCC2C(=O)O)cc1 (stereo unspecified)
Result block: inactive

Query block: Try the compound O=CC1C(Cl)=Nc2nc3ccccc3n2C1c1ccccc1 (stereo unspecified)
Result block: active

Query block: Try the compound CCn1c2c(n(CC)c1=S)-c1c(n(CC)c(=S)n1CC)SSSS2
Result block: inactive

* * *

system: UACC-62; test: NCI tumour cell line growth inhibition, 48 h
Active and inactive are the calls of the source. Cut-off read from the data, not from the text of the source: active = GI50 up to about 1.1 µM and inactive = higher.
In this exercise, the only acceptable responses are 1 (yes) = active, 0 (no) = inactive

Query block: Kindly provide the recorded test outcome for the following molecule: Cc1[nH]c2ccccc2c1/C=N/c1ccc(Oc2ccccc2)cc1
Result block: 0 (no)

Query block: Try the molecule CN(C)N1C(=O)c2ccccc2NC1c1ccccc1 (stereo not drawn)
Result block: 0 (no)

Query block: Try the molecule COc1cc2c(oc(=O)c3c4occc4cc(OC)c23)c2cccc(O)c12
Result block: 0 (no)

Query block: Try the molecule CCOC(=O)c1c(N2CCOCC2)[nH]c(=O)c(C(c2c(O)c(C(=O)OCC)c(N3CCOCC3)[nH]c2=O)C(C)C)c1O
Result block: 0 (no)

Query block: Try the molecule CC1OC(OC2C(CO)OC(O[C@H]3CC[C@@]4(C)C(=CC[C@H]5[C@@H]6C[C@@H]7O[C@](O)(CC[C@H](C)COC8OC(CO)C(O)C(O)C8O)[C@@H](C)[C@@H]7[C@@]6(C)CC[C@@H]54)C3)C(OC3OC(C)C(O)C(O)C3O)C2O)C(O)C(O)C1O (stereo partly drawn)
Result block: 0 (no)

Query block: Try the molecule CC(=O)NCC1(c2ccccc2)CCN(CC2COc3ccccc3O2)CC1 (stereo not drawn)
Result block: 0 (no)

Query block: Try the molecule CCO/C=C1\N=C(C(Cl)c2ccccc2)OC1=O (stereo not drawn)
Result block: 0 (no)

Query block: Try the molecule CC(=O)Nc1ccc(-c2nc3ccccc3s2)cc1
Result block: 0 (no)

Query block: Try the molecule Brc1ccccc2cc(-c3ccccc3)nc1-2
Result block: 0 (no)

Query block: Try the molecule Cc1c(O)c(OC2OC(CO)C(O)C(O)C2O)cc2c1C=C[C@@H]1[C@@]2(C)C(=O)C[C@]2(C)[C@@H]([C@@](C)(O)C(O)/C=C/C(C)(C)O)[C@H](O)C[C@@]12C (stereo partly drawn)
Result block: 0 (no)

Query block: Try the molecule O=C1C=CC(O)C2C1CC13SSC4(CC5C(=O)C=CC(O)C5N4C1=O)C(=O)N23 (stereo not drawn)
Result block: 1 (yes)

Query block: Try the molecule Clc1ccc(Cc2nc3cc4ccccc4cc3[nH]2)cc1Cl
Result block: 0 (no)

Query block: Try the molecule CC(C)CC1c2[nH]c3ccccc3c2C[C@H]2C(=O)NC(CCCCNC(=O)OC(C)(C)C)C(=O)N12 (stereo partly drawn)
Result block: 0 (no)

Query block: Try the molecule COC1C=CC23c4cc5c(cc4C(O)OC2CN(C)C3C1)OCO5 (stereo not drawn)
Result block: 0 (no)

Query block: Try the molecule c1ccc(-c2nn(-c3ccccc3)[n+](-c3ccccc3)n2)cc1
Result block: 0 (no)

Query block: Try the molecule COc1cccc(C2CC(=O)c3cc(N4CCCC4)ccc3N2)c1 (stereo not drawn)
Result block: 1 (yes)

Query block: Try the molecule O=C1/C(=C\c2ccc([N+](=O)[O-])cc2)CS(=O)(=O)C/C1=C/c1ccc([N+](=O)[O-])cc1
Result block: 1 (yes)

Query block: Try the molecule O=C(O)CC(CC(=O)O)C(=O)O
Result block: 0 (no)

Query block: Try the molecule CCO/C=N/C1=C(C#N)SC2=N/C(=C\c3ccccc3)C(=O)N21
Result block: 0 (no)

Query block: Try the molecule CC(C)(C)NN=C1C(C)(C)C(=NNC(C)(C)C)C1(C)C
Result block: 0 (no)

Query block: Try the molecule COc1ccc(C(OC(=O)[C@H](O[Si](C)(C)C(C)(C)C)[C@@H](NC(=O)c2ccccc2)c2ccccc2)c2ccc(OC)cc2)cc1
Result block: 0 (no)

Query block: Try the molecule CC(=O)O[C@H]1[C@@H]2OC(=O)[C@@](O)(CC3CCCO3)[C@@H]2CC(=O)[C@](C)(O)CC/C=C(\C)CCC[C@@H]1C (stereo partly drawn)
Result block: 0 (no)

Query block: Try the molecule CSc1nc2c(ncn2C2OCC(O)C(O)C2O)c(=O)n1C (stereo not drawn)
Result block: 0 (no)

Query block: Try the molecule O/N=C1/C(=C/c2ccccc2)CCCC1C(NO)c1ccccc1 (stereo not drawn)
Result block: 0 (no)

Query block: Try the molecule COc1cccc(/C=C2\CCCc3ccccc3C2=O)c1
Result block: 0 (no)

Query block: Try the molecule CC12CC3c4ccccc4CN1C3(c1ccccc1)OC2=O (stereo not drawn)
Result block: 0 (no)

Query block: Try the molecule Cc1ccccc1-n1c(CCl)nc2ccc(Br)cc2c1=O
Result block: 0 (no)

Query block: Try the molecule Oc1ccccc1-c1nn2c(CCCCCCCCc3nnc4sc(-c5ccccc5O)nn34)nnc2s1
Result block: 0 (no)

Query block: Try the molecule CCCCCCCCCCCC1=C(O)C(=O)C=C(O)C1=O
Result block: 0 (no)

Query block: Try the molecule O=c1[nH]c2nc3ccccc3c(=O)n2/c1=C/c1cccs1
Result block: 0 (no)

Query block: Try the molecule NC1=C2C(Br)=CN([C@@H]3O[C@H](CO)[C@@H](O)[C@@H]3O)C2C(=O)N=N1 (stereo partly drawn)
Result block: 0 (no)

Query block: Try the molecule NNC(=O)/C(=C/c1ccc(Cl)c(Cl)c1)NC(=O)c1ccccc1
Result block: 0 (no)

Query block: Try the molecule C=C/C(C)=C/[C@H](C)C(=O)C[C@H](O)CC1CC(=O)NC(=O)C1
Result block: 0 (no)

Query block: Try the molecule Cc1ccc(S(=O)(=O)NN=C2C(C)CC(C(C)(C)C)CC2C)cc1 (stereo not drawn)
Result block: 0 (no)

Query block: Try the molecule O=C(NCCCCl)c1c(O)c2ccccc2[nH]c1=O
Result block: 0 (no)

Query block: Try the molecule C[C@@]12CCCC(=O)N1[C@@H](CO)C(c1ccccc1)O2 (stereo partly drawn)
Result block: 0 (no)

Query block: Try the molecule CC(C)(C)OC(=O)CC(NC(=O)OC(C)(C)C)C(=O)N[C@@H]1CCCC[C@H]1C(=O)OCc1ccccc1 (stereo partly drawn)
Result block: 0 (no)

Query block: Try the molecule Nc1ccc(C(=O)NN2C(=O)C(Cl)C2c2ccccc2Cl)cc1 (stereo not drawn)
Result block: 0 (no)
